Assay: self-splicing fitness, log relative to wild type (ln ratio); higher = more splicing; Tetrahymena group I intron in knt gene, E. coli kanamycin selection, DiMSum; sequences stand for … in CUCUCU…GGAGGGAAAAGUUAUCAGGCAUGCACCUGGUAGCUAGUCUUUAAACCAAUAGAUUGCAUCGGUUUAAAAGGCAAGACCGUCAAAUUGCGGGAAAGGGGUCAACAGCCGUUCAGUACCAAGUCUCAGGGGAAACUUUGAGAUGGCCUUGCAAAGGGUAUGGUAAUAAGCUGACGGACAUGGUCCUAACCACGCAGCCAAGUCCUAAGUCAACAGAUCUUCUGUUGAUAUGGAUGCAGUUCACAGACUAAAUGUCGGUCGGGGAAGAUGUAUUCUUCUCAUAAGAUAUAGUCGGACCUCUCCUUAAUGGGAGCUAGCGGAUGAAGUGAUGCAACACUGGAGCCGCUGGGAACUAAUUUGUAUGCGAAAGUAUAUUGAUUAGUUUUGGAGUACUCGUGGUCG;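 further: selection with 25 µg/mL kanamycin versus none on LB agar overnight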
Details: 37 °C
ASSAY READOUT: self-splicing fitness (ln)

Worked cases, answers included:
# SEQUENCE, RESULT
data = [
    ("UAGUAGCAAUAUUACGUGCA", -0.189),
    ("CGGGAGCAAUAUUACGGUUU", -1.19),
    ("AAAUAGCAAUAUUACGUAUG", -2.08),
    ("GCCGAGCAAUAUUACGGGCA", -0.776),
    ("GUGCAGCAAUAUUACGAAGG", -1.53),
    ("CCGUAGCAAUAUUACGAUGG", -3.38),
    ("CAGCAGCAAUAUUACGGAGA", -3.02),
    ("CAUUAGCAAUAUUACGGUUC", -2.55),
]

Look at each sequence and report its self-splicing fitness (ln).
1. UUCUAGCAAUAUUACGGGCA
2. CCGUAGCAAUAUUACGUCGG
3. GUCUAGCAAUAUUACGCGAA
4. AUGUAGCAAUAUUACGCGCU
5. CACCAGCAAUAUUACGCAGU

OUT:
-0.0935
-3.02
-0.134
-0.00271
-2.09

Look at each sequence and report its self-splicing fitness (ln).
1. GAUCAGCAAUAUUACGUAUG
2. GGGCAGCAAUAUUACGAUCC
3. AUUUAGCAAUAUUACGGCGA
4. CUGCAGCAAUAUUACGGAGU
5. AGGCAGCAAUAUUACGUGAG
6. GCCUAGCAAUAUUACGCAUU
7. CGCUAGCAAUAUUACGAUCG
8. AAGUAGCAAUAUUACGCGGG

OUT:
-0.276
-0.374
0.144
-1.65
-0.526
-0.35
-0.644
-2.84

Look at each sequence and report its self-splicing fitness (ln).
1. GGAAAGCAAUAUUACGCUAU
2. UAGAAGCAAUAUUACGUUUA
3. GUUAAGCAAUAUUACGUAGU
4. GCAUAGCAAUAUUACGCGCA
5. GUUUAGCAAUAUUACGGUUC

OUT:
1. -2.11
2. -0.575
3. -0.895
4. -0.397
5. -0.823

Look at each sequence and report its self-splicing fitness (ln).
1. UUGUAGCAAUAUUACGCCGC
2. GGUUAGCAAUAUUACGAUCG
3. UGACAGCAAUAUUACGUGCC

OUT:
1. -2.68
2. -0.207
3. -1.58

Look at each sequence and report its self-splicing fitness (ln).
1. UCGGAGCAAUAUUACGUCUA
2. CCGCAGCAAUAUUACGUCAC
3. UUGGAGCAAUAUUACGCGAA
4. AGAGAGCAAUAUUACGUUUA
5. GCUUAGCAAUAUUACGUGUU
6. GAGGAGCAAUAUUACGUUAU

OUT:
1: -1.89; 2: -2.84; 3: -1.4; 4: -2.08; 5: -0.409; 6: -2.96

Look at each sequence and report its self-splicing fitness (ln).
1. CCAUAGCAAUAUUACGACGA
2. CUUUAGCAAUAUUACGUCUG
3. GUAAAGCAAUAUUACGAAAU
4. UCUGAGCAAUAUUACGGGCA

OUT:
1. -1.42
2. -0.218
3. -0.128
4. -2.49

Look at each sequence and report its self-splicing fitness (ln).
1. CCAAAGCAAUAUUACGAGUG
2. AGUAAGCAAUAUUACGAGGG
3. CCUGAGCAAUAUUACGGAGC
4. GCAUAGCAAUAUUACGCGGG
5. UUACAGCAAUAUUACGUGCC
6. ACGUAGCAAUAUUACGGCCA
7. UUUAAGCAAUAUUACGAGCU

OUT:
1. -0.144
2. -2.87
3. -1.9
4. -0.875
5. -0.031
6. 0.143
7. -0.0484

Look at each sequence and report its self-splicing fitness (ln).
1. AUAUAGCAAUAUUACGGUGA
2. UUCAAGCAAUAUUACGUUCC
3. GCGUAGCAAUAUUACGGAGG
4. GCUGAGCAAUAUUACGUGCU

OUT:
1: -1.11; 2: -1.79; 3: -1.98; 4: -3.39
